Taken from ChEMBL document CHEMBL4725229.

# target or test system: Sphingosine 1-phosphate receptor 3 (Homo sapiens)
# protocol summary: Agonist activity at S1P3 (unknown origin) relative to control
Calls of active or inactive are those of the source. No cut-off for these calls is given here.

molecular string	Emax
Cn1cc(C(=O)Nc2ccc(-c3ccccc3)c(C(F)(F)F)c2)c(=O)c2cnccc21	inactive
Cn1cc(C(=O)Nc2cc(C(F)(F)F)c(-c3ccccc3)cn2)c(=O)c2ccccc21	inactive
Cn1cc(C(=O)Nc2ccc(-c3ccccc3)c(C(F)(F)F)c2)c(=O)c2ncccc21	inactive
Cn1cc(C(=O)Nc2ccc(-c3ccccn3)c(C(F)(F)F)c2)c(=O)c2ccccc21	inactive
Cn1cc(C(=O)Nc2cnc(-c3ccccc3)c(C(F)(F)F)c2)c(=O)c2ccccc21	inactive
Cn1cc(C(=O)Nc2ccc(-c3ccccc3)c(C(F)(F)F)c2)c(=O)c2cccnc21	inactive
Cn1cc(C(=O)Nc2ccc(-c3ccccc3)c(C(F)(F)F)n2)c(=O)c2cnccc21	inactive
Cn1cc(C(=O)Nc2ccc(-c3ccccc3)c(C(F)(F)F)n2)c(=O)c2ccccc21	inactive
Cn1cc(C(=O)Nc2ccc(-c3cccnc3)c(C(F)(F)F)c2)c(=O)c2ccccc21	inactive

###

Readings of Emax for the listed compounds
# target or test system: Sphingosine 1-phosphate receptor 1 (Homo sapiens) (UniProt P21453)
# Sequence (P21453 whole entry): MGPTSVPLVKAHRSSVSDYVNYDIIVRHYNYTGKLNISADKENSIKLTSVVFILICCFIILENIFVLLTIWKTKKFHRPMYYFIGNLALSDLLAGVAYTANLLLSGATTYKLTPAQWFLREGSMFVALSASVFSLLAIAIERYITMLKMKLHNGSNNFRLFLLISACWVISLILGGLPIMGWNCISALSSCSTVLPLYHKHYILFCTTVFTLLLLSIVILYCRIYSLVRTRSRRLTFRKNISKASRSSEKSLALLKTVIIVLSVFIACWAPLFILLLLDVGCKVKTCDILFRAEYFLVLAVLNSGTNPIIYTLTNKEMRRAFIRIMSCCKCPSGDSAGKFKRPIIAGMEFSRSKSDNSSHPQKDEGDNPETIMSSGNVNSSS
# protocol summary: Agonist activity at S1P1 (unknown origin) relative to control
# condition info: filed as agonist

molecular string	Emax / %
Cn1cc(C(=O)Nc2cnc(-c3ccccc3)c(C(F)(F)F)c2)c(=O)c2ccccc21	170
Cn1cc(C(=O)Nc2ccc(-c3ccncc3)c(C(F)(F)F)c2)c(=O)c2ccccc21	110
Cn1cc(C(=O)Nc2ccc(-c3ccccc3)c(C(F)(F)F)n2)c(=O)c2ccccc21	120
Cn1cc(C(=O)Nc2ccc(-c3ccccc3)c(C(F)(F)F)c2)c(=O)c2ncccc21	86
Cn1cc(C(=O)Nc2ccc(-c3ccccn3)c(C(F)(F)F)c2)c(=O)c2ccccc21	110
Cn1cc(C(=O)Nc2ccc(-c3ccccc3)c(C(F)(F)F)c2)c(=O)c2cccnc21	100
Cn1nc(C(=O)Nc2ccc(-c3ccccc3)c(C(F)(F)F)c2)c(=O)c2ccccc21	130
Cn1cc(C(=O)Nc2ccc(-c3ccccc3)c(C(F)(F)F)c2)c(=O)c2cnccc21	100
Cn1cc(C(=O)Nc2ccc(-c3ccccc3)c(C(F)(F)F)c2)c(=O)c2ccncc21	120

###

# target or test system: Sphingosine 1-phosphate receptor 1 (Homo sapiens)
# protocol summary: Agonist activity at S1P1 (unknown origin) relative to control
# condition info: filed as agonist

molecular string	Emax
Cn1cc(C(=O)Nc2cc(C(F)(F)F)c(-c3ccccc3)cn2)c(=O)c2ccccc21	59%
Cn1cc(C(=O)Nc2ccc(-c3cccnc3)c(C(F)(F)F)c2)c(=O)c2ccccc21	110%
Cn1cc(C(=O)Nc2ccc(-c3ccccc3)c(C(F)(F)F)c2)c(=O)c2ccccc21	110%
Cn1cc(C(=O)Nc2ccc(-c3ccccc3)c(C(F)(F)F)n2)c(=O)c2cnccc21	120%

###

# target or test system: Sphingosine 1-phosphate receptor 3 (Homo sapiens, UniProt Q99500)
# Sequence (Q99500 whole entry): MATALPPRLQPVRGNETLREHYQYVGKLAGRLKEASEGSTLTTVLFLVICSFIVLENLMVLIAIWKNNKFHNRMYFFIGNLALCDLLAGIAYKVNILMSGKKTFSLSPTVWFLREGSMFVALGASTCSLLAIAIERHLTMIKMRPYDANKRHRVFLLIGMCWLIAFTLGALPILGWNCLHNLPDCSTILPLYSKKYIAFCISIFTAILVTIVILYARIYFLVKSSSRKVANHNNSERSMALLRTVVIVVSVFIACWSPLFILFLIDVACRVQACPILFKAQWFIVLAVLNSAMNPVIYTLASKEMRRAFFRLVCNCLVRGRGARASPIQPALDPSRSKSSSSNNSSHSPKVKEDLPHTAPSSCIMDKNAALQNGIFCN
# protocol summary: Agonist activity at S1P3 (unknown origin) relative to control
Calls of active or inactive are those of the source. The calls are words filed in the database; no cut-off is given here.
value kind: Emax

molecular string	value kind	measured
Cn1cc(C(=O)Nc2ccc(-c3ccncc3)c(C(F)(F)F)c2)c(=O)c2ccccc21	Emax	inactive
Cn1cc(C(=O)Nc2ccc(-c3ccccc3)c(C(F)(F)F)c2)c(=O)c2ccncc21	Emax	inactive
Cn1nc(C(=O)Nc2ccc(-c3ccccc3)c(C(F)(F)F)c2)c(=O)c2ccccc21	Emax	inactive
